# assayRemarks: M. tuberculosis H37Rv growth inhibitors, H37Rv strain (AID 1626);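 further: bacteria incubated seven days before Alamar blue readout; 0% = bacteria only wells and 100% = bacteria with antibiotic wells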
# conditionLabel: stronger effect = higher value, concentration not given here
The whole screen tested about 220,000 compounds, of which about 2,000 (0.91%) were called active. About 2% were inconclusive and are not listed. The list is a sample of the results. Potency and affinity values are given separately.
endpoint: inhibition (%)
Field format: number, assumed %, no unit text.

The following molecules have reported results that may help.
# mol, endpoint, readoutUnits, readoutValue
records = [
    ("COc1ccc(CN(C)C(=O)CCl)cc1", "inhibition", "%", 17.4),
    ("COc1cc(OC)c(S(=O)(=O)NCc2ccco2)cc1S(=O)(=O)NCc1ccco1", "inhibition", "%", 1.4),
    ("O=C(C1=NN[C@@H]2C(=O)N(c3cccc(C(F)(F)F)c3)C(=O)[C@H]12)c1cnccn1", "inhibition", "%", -13.3),
]

Please give measured inhibition of the following entry: Cc1nn2c(-c3ccccc3)ccnc2c1-c1ccccc1
-0.56

Please give measured inhibition of the following entry: COC(=O)c1ccc(COC(=O)c2cnccn2)cc1
16.3

Please give measured inhibition of the following entry: CC(=N/O)/C(=N\O)c1ccc(C)o1
5.71

----------
# assayRemarks: M. tuberculosis H37Rv growth inhibitors, H37Rv strain (AID 1626)
# conditionLabel: stronger effect = higher value, concentration not given here
The campaign covered roughly 220,000 compounds. About 2,000 (0.91%) were called active. Roughly 2% stayed inconclusive and do not appear here. These entries were drawn from the full list. Potency and affinity values are given separately.
Collected inhibition values appear next to each entry.
Field format: number, assumed %, no unit text.

The following compounds have reported results that may help.
# compound, endpoint, readoutValue
data = [
    ("CC[C@@H]1C=C(C)C[C@H](C)C[C@H](OC)[C@H]2O[C@@](O)(C(=O)C(=O)N3CCCC[C@H]3C(=O)O[C@H](/C(C)=C/[C@@H]3CC[C@@H](O)[C@H](OC)C3)[C@H](C)[C@@H](O)CC1=O)[C@H](C)C[C@@H]2OC", "inhibition", 5.69),
    ("Cc1onc(-c2ccccc2Cl)c1C(=O)Nc1ccc(-n2nncc2-c2ccco2)cc1", "inhibition", 68),
    ("CCOC(=O)CSc1nnc(CNc2cccc(Cl)c2)n1-c1ccccc1", "inhibition", 5.48),
]

Please give measured inhibition of the following entry: Cc1nc(-c2cccc(NC(=O)C3CCCCC3)c2)cs1
-1.02

Please give measured inhibition of the following entry: Cc1ccc(C(=O)NCCSC2CCCCC2)cc1S(=O)(=O)Nc1ccccc1
-1.4

----------
Collected inhibition values appear next to each entry.
# assayRemarks: M. tuberculosis H37Rv growth inhibitors, H37Rv strain (AID 1626)
# conditionLabel: stronger effect = higher value, concentration not given here
Hit rate of the full screen: of about 220,000 compounds, about 2,000 (0.91%) were called active. Another 2% or so got no clear call; they are omitted. These entries were drawn from the full list. Results with a measured potency or affinity are listed apart.
Field format: number, assumed %, no unit text.

The following compounds have reported results that may help.
# compound, readoutUnits, readoutValue
records = [
    ("Cc1nc([N+](=O)[O-])cn1CC(=O)NCCCO", "%", 8.65),
    ("CCOC(=O)Cc1csc(NC(=O)c2c(O)c3c(n(CC(C)C)c2=O)CCCC3)n1", "%", 71.9),
    ("CC(C)(C)CN1CCNC(=O)C1CC(=O)N1CCN(c2ccccc2)CC1 (stereo unspecified)", "%", -2.51),
]

Please give measured inhibition of the following entry: OC(CNCc1cccc(Cl)c1)c1ccccc1 (stereo unspecified)
6.44

Please give measured inhibition of the following entry: NCC(c1ccccc1)c1c[nH]c2ccccc12 (stereo unspecified)
-2.1

Please give measured inhibition of the following entry: CC(C)CCn1c(=O)c(C(=O)Nc2ccccc2S(N)(=O)=O)c(O)c2ccccc21
-11.9

----------
Collected inhibition values appear next to each entry.
# assayRemarks: M. tuberculosis H37Rv growth inhibitors, H37Rv strain (AID 1626)
# conditionLabel: stronger effect = higher value, concentration not given here
Out of some 220,000 compounds screened, about 2,000 (0.91%) were called active. Another 2% or so got no clear call; they are omitted. These entries were drawn from the full list. Measured potencies and affinities stand elsewhere.
Field format: number, assumed %, no unit text.

The following compounds have reported results that may help.
# compound, inhibition, %
data = [
    ("COc1cccc(CNC(=O)CCC2CCCN(C(=O)c3cscn3)C2)c1 (stereo not given)", -1.29),
    ("CC(C)OC(=O)c1cc(C(=O)c2cc(Br)ccc2O)coc1=N", -3.62),
    ("COc1cccc(OCC(O)CN2CCC(CN3C(=O)c4cccc5cccc(c45)C3=O)CC2)c1 (stereo not given)", -4.13),
    ("COC(=O)c1cc(C(=O)c2cc(Cl)ccc2O)coc1=N", 3.92),
    ("N#Cc1c(SCC(N)=O)nsc1SCc1ccc(Cl)cc1", -0.48),
    ("CCCN(CCC)CCCNC(=S)Nc1ccc2nc(N3CCN(C)CC3)cc(C)c2c1", -1.09),
    ("CSc1ncccc1C(=O)OCC(=O)N(CC(C)C)C1CCS(=O)(=O)C1 (stereo not given)", -5.78),
    ("Cc1cccc(-n2cc(CN3CCN(c4ccccn4)CC3)c(-c3cccc(F)c3)n2)c1", 15.4),
    ("O=C1c2cccc3cccc(c23)C(=O)N1CC1CCN(CC(O)COCc2ccc3c(c2)OCO3)CC1 (stereo not given)", 76.5),
]

Please give measured inhibition of the following entry: Cc1c(Cl)cccc1NC(=O)Cn1c(-c2ccc(F)cc2)noc1=O
-3.42

----------
# assayRemarks: M. tuberculosis H37Rv growth inhibitors, H37Rv strain (AID 1626);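 further: bacteria incubated seven days before Alamar blue readout; 0% = bacteria only wells and 100% = bacteria with antibiotic wells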
# conditionLabel: stronger effect = higher value, concentration not given here
Among all 220,000 compounds or so, about 2,000 (0.91%) were called active. Another 2% or so got no clear call; they are omitted. Not all results are given here. Results with a measured potency or affinity are listed apart.
Collected inhibition values appear next to each entry.

The following compounds have reported results that may help.
# compound, endpoint, readoutValue
data = [
    ("CCn1cc(C(=O)N2CCN(c3ccc([N+](=O)[O-])cc3)CC2)c(=O)c2ccc(C)nc21", "inhibition", "6.57% (inactive)"),
    ("CCN1CCN(Cc2ccc(NC(=O)c3ccc(C)c(NC(=O)c4nccn4C)c3)cc2C(F)(F)F)CC1", "inhibition", "2% (inactive)"),
]

Consider now this further compound.
Please give measured inhibition of the following entry: CCN1CCN(Cc2ccc(NC(=O)c3ccc(C)c(NC(=O)c4cccc5[nH]ccc45)c3)cc2C(F)(F)F)CC1
-5.49% (inactive)

----------
Collected inhibition values appear next to each entry.
# assayRemarks: M. tuberculosis H37Rv growth inhibitors, H37Rv strain (AID 1626);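 further: bacteria incubated seven days before Alamar blue readout; 0% = bacteria only wells and 100% = bacteria with antibiotic wells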
# conditionLabel: stronger effect = higher value, concentration not given here
The campaign covered roughly 220,000 compounds. About 2,000 (0.91%) were called active. Inconclusive results (about 2%) are left out. Only a sample is shown. Potency and affinity values are given separately.
Field format: number, assumed %, no unit text.

# molecule, readoutUnits, inhibition
data = [
    ("Cc1c(NC(=O)c2cc3c(s2)-c2ccccc2OC3)cccc1[N+](=O)[O-]", "%", 1.27),
    ("Cc1ccc2c3c(cccc13)-c1ccccc1C2=O", "%", 10.1),
    ("Cc1ccc2nc(/C(C#N)=C\\c3cc(O)ccc3[N+](=O)[O-])[nH]c2c1", "%", -7.37),
    ("CN1CCN(C(=S)c2ccc(-c3cccc(Cl)c3Cl)o2)CC1", "%", 2.93),
    ("Cc1ccc2nc(/C(C#N)=C/c3ccc(-c4cccc([N+](=O)[O-])c4)o3)[nH]c2c1", "%", 1.74),
]

Please give measured inhibition of the following entry: N#C/C(=C\c1ccc(OC(=O)c2cccs2)cc1)c1nc2ccccc2[nH]1
28.1

Please give measured inhibition of the following entry: O=C1NC(c2ccccc2)=NC1(NS(=O)(=O)c1ccc(Cl)cc1)C(F)(F)F (stereo not drawn)
7.08

Please give measured inhibition of the following entry: Nc1[nH]ncc1-c1ccccc1
48.5

Please give measured inhibition of the following entry: Cc1nn(Cc2ccc(F)cc2Cl)c(C)c1[N+](=O)[O-]
5.81

Please give measured inhibition of the following entry: Cc1ccccc1NC(=O)c1ccc(-c2ccc(Cl)cc2Cl)o1
66.1

Please give measured inhibition of the following entry: CS(=O)(=O)N1CCN(c2ccccc2NC(=O)c2ccc(-c3ccc(Cl)cc3Cl)o2)CC1
-2.89

Please give measured inhibition of the following entry: Nc1c2c(nc3ccc(Br)cc13)N(c1ccccc1)CC2
14.3

----------
Collected inhibition values appear next to each entry.
# assayRemarks: M. tuberculosis H37Rv growth inhibitors, H37Rv strain (AID 1626);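 further: bacteria incubated seven days before Alamar blue readout; 0% = bacteria only wells and 100% = bacteria with antibiotic wells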
# conditionLabel: stronger effect = higher value, concentration not given here
About 2,000 (0.91%) of roughly 220,000 compounds were called active. Not shown: some 2% with an inconclusive outcome. These entries were drawn from the full list. Results with a measured potency or affinity are listed apart.
Field format: number, assumed %, no unit text.

The following compounds have reported results that may help.
# compound, inhibition, %
data = [
    ("Cc1cc(C)cc(NC(=O)NCc2c(-c3ccccc3)noc2C)c1", 1.42),
    ("COc1ccccc1C(=O)O/N=C(\\c1ccccc1)c1ccncc1", 3.28),
    ("O=C(Nc1ccc(NC(=S)NC(=O)c2cccs2)cc1)c1ccco1", -2.57),
]

Please give measured inhibition of the following entry: COc1ccc(C2/C=C\CN(C(=O)Oc3ccc(C(F)(F)F)cc3)CC(=O)N2Cc2ccc(F)cc2)cc1 (stereo unspecified)
2.36

Please give measured inhibition of the following entry: CCOC(=O)c1c(NC(=O)CNCC(O)CO)sc(C)c1C (stereo unspecified)
4.88

Please give measured inhibition of the following entry: COC(CC(=O)NNC(=S)Nc1ccc(Cl)cc1)OC
4.27

Please give measured inhibition of the following entry: Cc1[nH]c2ccccc2c1/C=N/NC(=O)CNC(=O)COc1ccccc1
10
